system: HepG2 or HepG2.117 cells; experiment: Cytotoxicity, ATPlite Luminescence Assay; format: cell-based, human; conditions: 3-days incubation unless marked with *, ATPlite viability
value kind: CC50

Ask | Give me measured CC50, please, for this compound: CNC(=O)[C@@H]1CN(C(C)c2ccc(-n3nnc(C)n3)cc2)C(=O)c2c3c(nn21)C[C@@H](C)N(C(=O)c1ccc(Cl)c(Cl)c1)C3 (single isomer, unassigned) [Compound 30B]
Reply | 17.2 µM

Ask | Give me measured CC50, please, for this compound: CNC(=O)[C@@H]1CN(C(C)c2ccc(OC(F)F)nc2)C(=O)c2c3c(nn21)C[C@@H](C)N(C(=O)c1ccc(Cl)c(Cl)c1)C3 (single isomer, unassigned) [Compound 11A]
Reply | > 50 µM

Ask | Give me measured CC50, please, for this compound: CNC(=O)[C@@H]1CN(C(C)c2cnc(C(F)(F)F)nc2)C(=O)c2c3c(nn21)C[C@@H](C)N(C(=O)c1ccc(Cl)c(C(F)(F)F)c1)C3 (single isomer, unassigned) [Compound 43B]
Reply | > 50 µM

Ask | Give me measured CC50, please, for this compound: CCC(c1ccc(S(C)(=O)=O)cc1)N1C[C@@H](C(=O)NC)n2nc3c(c2C1=O)CN(C(=O)c1ccc(Cl)c(Cl)c1)[C@H](C)C3 (single isomer, unassigned) [Compound 22B]
Reply | > 50 µM

###

For each entry below, report its CC50 value.
experiment: Cytotoxicity, ATPlite Luminescence Assay; assay type: cell-based, human; conditions: human, HepG2 or HepG2.117 cells, 3-days incubation unless marked with *, ATPlite viability

Ask | Give me measured CC50, please, for this molecule: CNC(=O)[C@@H]1CN([C@@H](C)c2ccc(S(C)(=O)=O)cc2)C(=O)c2c3c(nn21)C[C@@H](C)N(C(=O)c1ccc(Cl)c(Cl)c1)C3 [Compound 18B]
Reply | > 50 µM

Ask | Give me measured CC50, please, for this molecule: CCC(c1ccc(S(C)(=O)=O)cc1)N1C[C@@H](C(=O)NC)n2nc3c(c2C1=O)CN(C(=O)c1ccc(Cl)c(Cl)c1)[C@H](C)C3 (single isomer, unassigned) [Compound 22A]
Reply | > 50 µM

Ask | Give me measured CC50, please, for this molecule: CNC(=O)[C@@H]1CN([C@H](C)c2ccc(C(F)(F)F)nc2)C(=O)c2c3c(nn21)C[C@@H](C)N(C(=O)c1ccc(Cl)c(Cl)c1)C3 [Compound 13A]
Reply | > 50 µM

###

system: HBV; test: Anti-HBV activity in HepG2.117 cell line (intracellular HBV DNA, real-time PCR); type: cell-based, hepatitis B virus; details: HepG2.117 cells, HBV replication induced, 3 days of treatment, intracellular HBV DNA by real-time PCR
Response field label takes Met when EC50 is strictly below 0.09 µM and Not met in all other cases.

Ask | Answer whether the compound CNC(=O)[C@@H]1CN(C(C)c2ccc(C#N)cc2)C(=O)c2c3c(nn21)C[C@@H](C)N(C(=O)c1ccc(Cl)c(Cl)c1)C3 (single isomer, unassigned) [Compound 23B] has EC50 strictly less than 0.09 µM
Reply | Met

Ask | Answer whether the compound CNC(=O)[C@@H]1CN(C(C)c2ccc(OC(F)F)nc2)C(=O)c2c3c(nn21)C[C@@H](C)N(C(=O)c1ccc(Cl)c(Cl)c1)C3 (single isomer, unassigned) [Compound 11B] has EC50 strictly less than 0.09 µM
Reply | Met

Ask | Answer whether the compound CCC(c1ccc(S(C)(=O)=O)cc1)N1C[C@@H](C(=O)NC)n2nc3c(c2C1=O)CN(C(=O)c1ccc(Cl)c(Cl)c1)[C@H](C)C3 (single isomer, unassigned) [Compound 22A] has EC50 strictly less than 0.09 µM
Reply | Not met

Ask | Answer whether the compound CNC(=O)[C@@H]1CN(C(C)c2cc(F)ccn2)C(=O)c2c3c(nn21)C[C@@H](C)N(C(=O)c1ccc(Cl)c(Cl)c1)C3 (single isomer, unassigned) [Compound 42B] has EC50 strictly less than 0.09 µM
Reply | Met
